Molecular target: Drosophila OR13a (Drosophila melanogaster, UniProt Q9VXL0)
Construct: expressed in transfected cells
Sequence (Q9VXL0 1-418): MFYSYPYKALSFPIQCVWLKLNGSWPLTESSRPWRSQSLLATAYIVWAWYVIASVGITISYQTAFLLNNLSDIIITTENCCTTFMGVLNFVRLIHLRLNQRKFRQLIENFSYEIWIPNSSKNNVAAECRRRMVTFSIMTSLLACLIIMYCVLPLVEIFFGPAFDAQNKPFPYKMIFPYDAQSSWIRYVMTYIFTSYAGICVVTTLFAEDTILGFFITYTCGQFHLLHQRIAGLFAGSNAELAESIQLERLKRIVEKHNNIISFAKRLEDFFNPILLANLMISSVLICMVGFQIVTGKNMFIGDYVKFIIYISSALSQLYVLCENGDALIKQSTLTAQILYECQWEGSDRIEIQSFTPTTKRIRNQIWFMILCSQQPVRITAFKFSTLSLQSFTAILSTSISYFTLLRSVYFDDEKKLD
Sequence (Q9VNB5 1-486 partner): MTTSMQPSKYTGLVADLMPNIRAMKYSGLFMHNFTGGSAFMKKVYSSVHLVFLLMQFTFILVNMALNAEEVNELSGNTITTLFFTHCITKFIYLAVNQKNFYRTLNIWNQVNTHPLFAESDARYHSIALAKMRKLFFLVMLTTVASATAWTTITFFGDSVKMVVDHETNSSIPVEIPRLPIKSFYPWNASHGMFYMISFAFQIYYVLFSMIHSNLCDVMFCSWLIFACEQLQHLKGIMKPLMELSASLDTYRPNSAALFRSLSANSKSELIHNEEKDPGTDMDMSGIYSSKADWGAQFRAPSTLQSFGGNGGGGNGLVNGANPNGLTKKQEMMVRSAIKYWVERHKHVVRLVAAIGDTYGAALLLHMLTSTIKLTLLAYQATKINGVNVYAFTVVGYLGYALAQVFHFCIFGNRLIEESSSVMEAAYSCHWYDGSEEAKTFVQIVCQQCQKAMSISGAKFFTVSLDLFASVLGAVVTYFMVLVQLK
Experiment: Calcium ion fluorescence (GCaMP6) assay, OR13a stable HEK293 cell line
Type: cell-based
Conditions: HEK293, read-out: OR13a response (VUAA1-normalized response), VOC concentration 100 μM
Assay readout: activation at 100 µM (%)
One number for each entry, in %.

compound=CC(=O)c1ccccc1 assay_readout="activation at 100 µM" observed=0

List reported activation at 100 µM for each of these compounds:
1. CCCCCC(C)=O
2. CCCCCC(=O)CC

[0, 0]

List reported activation at 100 µM for each of these compounds:
1. C=C1CC/C=C(\C)CC[C@@H]2[C@@H]1CC2(C)C [(-)-trans-caryophyllene]
2. CCCCCC(C)O (stereo not drawn)
3. C=CCc1ccc(O)c(OC)c1
4. CC(=O)OCCC(C)C [isopentyl acetate]

10
8
0
0

List reported activation at 100 µM for each of these compounds:
1. CCOC(=O)c1ccccc1 [ethyl benzoate]
2. Cc1ccc(O)cc1
3. C=CC(O)CCCCC (stereo not drawn)
4. CCCCOC(=O)CC [butyl propanoate]
5. Cc1ccc(C)c(C)c1
6. CCCCCC(O)CC (stereo not drawn)

0
0
38
0
0
12

List reported activation at 100 µM for each of these compounds:
1. CCCCCCCCC(CO)CCCCCC (stereo not drawn)
2. CCOC(=O)CC [ethyl propionate]
3. CC1=CCC2C(C1)C2(C)C (stereo not drawn)
4. CCCCCCCO
5. CCCCC(C)=O
6. CCCCCC(=O)OCC [ethyl hexanoate]
7. CCCCC(C)O (stereo not drawn)

1. 0
2. 0
3. 0
4. 22
5. 0
6. 0
7. 0

List reported activation at 100 µM for each of these compounds:
1. CCCC(=O)OCC [ethyl butyrate]
2. C=C1CC[C@H]2O[C@]2(C)CC[C@@H]2[C@@H]1CC2(C)C [(-)-caryophyllene oxide]
3. Cc1cccc(O)c1
4. COc1cccc(OC)c1
5. CCCCOC(C)=O [butyl acetate]
6. CC1=CC[C@@H](C(C)(C)O)CC1

0
0
0
0
0
0

What value of measured activation at 100 µM is listed for CCCC(O)CC (stereo not drawn) ?
0
